Listed here are binders together with their documented binding signal.
target: dAsCas12a S542R (Acidaminococcus sp., UniProt U2UMQ6 1-1307, S542R;D908A;E993A;D1235A); assay: Spec-seq (native PAGE EMSA with sequencing of bound and unbound); 25 mM Tris-HCl pH 7.4, 150 mM KCl, 5 mM MgCl2, 10% glycerol, 1 mM DTT, 40 ng/uL salmon sperm DNA; 400 nM Cas12a, 480 nM crRNA, 50 nM library, 37 C 1 h; native PAGE at room temperature; high values mean tight binding; conditions: protein: recombinant;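 note: relative affinity from the bound to unbound sequence frequency ratio in Spec-seq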
Enter your answer as a number in lnKA; do not include the unit.

Example entries begin here.
INSERT INTO measurements (binder, metric, value_unit, measured) VALUES
  ('CCCA (dsDNA) DNA 1: GCTATCTAGTGCTCAGTACGCACTGCCCAAGGAAACTTCTGGCAGGACCAGGTCATGAGATCGGAAGAGCACACGTCTGAACTCCAGTCA DNA 2: TGACTGGAGTTCAGACGTGTGCTCTTCCGATCTCATGACCTGGTCCTGCCAGAAGTTTCCTTGGGCAGTGCGTACTGAGCACTAGATAGC RNA: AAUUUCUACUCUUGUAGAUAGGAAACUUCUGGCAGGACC', 'binding signal', 'lnKA', -6.21),
  ('AATC (dsDNA) DNA 1: GCTATCTAGTGCTCAGTACGCACTGAATCAGGAAACTTCTGGCAGGACCAGGTCATGAGATCGGAAGAGCACACGTCTGAACTCCAGTCA DNA 2: TGACTGGAGTTCAGACGTGTGCTCTTCCGATCTCATGACCTGGTCCTGCCAGAAGTTTCCTGATTCAGTGCGTACTGAGCACTAGATAGC RNA: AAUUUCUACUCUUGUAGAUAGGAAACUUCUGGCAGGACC', 'binding signal', 'lnKA', -8.19),
  ('GGGC (dsDNA) DNA 1: GCTATCTAGTGCTCAGTACGCACTGGGGCAGGAAACTTCTGGCAGGACCAGGTCATGAGATCGGAAGAGCACACGTCTGAACTCCAGTCA DNA 2: TGACTGGAGTTCAGACGTGTGCTCTTCCGATCTCATGACCTGGTCCTGCCAGAAGTTTCCTGCCCCAGTGCGTACTGAGCACTAGATAGC RNA: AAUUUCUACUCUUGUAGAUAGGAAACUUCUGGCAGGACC', 'binding signal', 'lnKA', -8.77),
  ('GCCC (dsDNA) DNA 1: GCTATCTAGTGCTCAGTACGCACTGGCCCAGGAAACTTCTGGCAGGACCAGGTCATGAGATCGGAAGAGCACACGTCTGAACTCCAGTCA DNA 2: TGACTGGAGTTCAGACGTGTGCTCTTCCGATCTCATGACCTGGTCCTGCCAGAAGTTTCCTGGGCCAGTGCGTACTGAGCACTAGATAGC RNA: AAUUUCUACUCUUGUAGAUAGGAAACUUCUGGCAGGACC', 'binding signal', 'lnKA', -5),
  ('GCTT (dsDNA) DNA 1: GCTATCTAGTGCTCAGTACGCACTGGCTTAGGAAACTTCTGGCAGGACCAGGTCATGAGATCGGAAGAGCACACGTCTGAACTCCAGTCA DNA 2: TGACTGGAGTTCAGACGTGTGCTCTTCCGATCTCATGACCTGGTCCTGCCAGAAGTTTCCTAAGCCAGTGCGTACTGAGCACTAGATAGC RNA: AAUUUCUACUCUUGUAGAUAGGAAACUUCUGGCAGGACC', 'binding signal', 'lnKA', -8.31);

Q: Return reported binding signal; argument: ATGT (dsDNA) DNA 1: GCTATCTAGTGCTCAGTACGCACTGATGTAGGAAACTTCTGGCAGGACCAGGTCATGAGATCGGAAGAGCACACGTCTGAACTCCAGTCA DNA 2: TGACTGGAGTTCAGACGTGTGCTCTTCCGATCTCATGACCTGGTCCTGCCAGAAGTTTCCTACATCAGTGCGTACTGAGCACTAGATAGC RNA: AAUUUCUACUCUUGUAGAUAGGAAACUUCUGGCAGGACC
A: -8.67

Q: Try this binder next: ATAC (dsDNA) DNA 1: GCTATCTAGTGCTCAGTACGCACTGATACAGGAAACTTCTGGCAGGACCAGGTCATGAGATCGGAAGAGCACACGTCTGAACTCCAGTCA DNA 2: TGACTGGAGTTCAGACGTGTGCTCTTCCGATCTCATGACCTGGTCCTGCCAGAAGTTTCCTGTATCAGTGCGTACTGAGCACTAGATAGC RNA: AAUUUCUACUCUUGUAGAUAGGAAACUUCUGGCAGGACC
A: -8.39
